biological target: human GLP-1R (Homo sapiens, UniProt P43220, C347A); construct: gene GLP1R; full-length receptor expressed in HEK293 cells; C347A mutant carries a 1xFLAG tag; assay: HTRF cAMP accumulation, HEK293 cells; type: cell-based; conditions: read-out: EC50, C347A (nM) (S.D., n)
Sequence (P43220 24-463 C347A): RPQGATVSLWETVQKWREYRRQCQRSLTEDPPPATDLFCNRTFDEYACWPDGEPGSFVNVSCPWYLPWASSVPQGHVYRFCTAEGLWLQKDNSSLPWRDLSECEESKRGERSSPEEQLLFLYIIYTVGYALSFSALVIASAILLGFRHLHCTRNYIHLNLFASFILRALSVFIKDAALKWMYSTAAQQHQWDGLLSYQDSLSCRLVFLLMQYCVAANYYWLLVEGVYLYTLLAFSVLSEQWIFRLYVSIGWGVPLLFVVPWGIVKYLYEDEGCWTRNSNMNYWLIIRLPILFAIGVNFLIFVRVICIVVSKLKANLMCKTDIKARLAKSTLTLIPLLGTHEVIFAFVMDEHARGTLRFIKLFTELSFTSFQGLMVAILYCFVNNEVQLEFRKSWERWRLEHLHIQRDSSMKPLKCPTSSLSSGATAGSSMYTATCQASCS
MEASURED ENDPOINT: EC50

Assign EC50 to the following record: `CC1(C)CC(=O)c2c(S(C)(=O)=O)sc(C(=O)c3ccc(-c4ccccc4)cc3)c2C1`
> 30000 nM

Tell me measured EC50 for `CC(C)(C)Nc1nc2cc(Cl)c(Cl)cc2nc1S(C)(=O)=O` please.
> 30000 nM

----------
biological target: human GLP-1R (Homo sapiens); construct: gene GLP1R; full-length receptor expressed in HEK293 cells; C347A mutant carries a 1xFLAG tag; assay: HTRF cAMP accumulation, HEK293 cells; assay type: cell-based; settings: read-out: Compound, EC50, WT (nM) (S.D., n)
MEASURED ENDPOINT: EC50 (nM)

molecule=CS(=O)(=O)c1nc(-c2ccccc2)cc(-c2ccccc2)c1C#N assayed_target="human GLP-1R (Homo sapiens)" value_reported=6000

1. Clc1nc2c(-c3ccccc3)nnn2c2ccccc12
2. CCOC(=O)c1ccc(N2Cc3ccccc3C(=Cc3ccc(Br)cc3)C2=N)cc1
Look at 1 and 2 . Which one has the lower recorded EC50 number? Kindly give the label for the entry you pick.
2

A. CS(=NC(=O)Nc1ccc(Cl)cc1)c1sc(Cl)c2c1C(=O)CCC2 (centres unmarked)
B. O=S(=O)(c1ccccc1)c1nc(-c2ccccc2)ns1
Consider entries A and B . Which has the numerically lower EC50? # answer = label of selected item
B

----------
molecular target: human CatL (Homo sapiens, UniProt P07711); construct: gene CTSL; commercial cathepsin L (Calbiochem); assay: fluorogenic Z-Phe-Arg-AMC hydrolysis; format: biochemical; conditions: read-out: IC50
Sequence (P07711 114-288 limits assumed): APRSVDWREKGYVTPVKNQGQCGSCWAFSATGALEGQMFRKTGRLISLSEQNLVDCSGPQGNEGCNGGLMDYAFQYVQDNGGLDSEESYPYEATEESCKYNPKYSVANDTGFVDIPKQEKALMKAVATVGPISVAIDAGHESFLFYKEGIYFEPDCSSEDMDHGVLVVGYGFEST
Sequence (P07711 292-333 limits assumed): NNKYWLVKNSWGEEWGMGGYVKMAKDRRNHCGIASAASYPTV
MEASURED ENDPOINT: pIC50
Schema: pIC50 number; meaning minus log10 of the concentration expressed in molar units.

Provide only the value of recorded pIC50 for O=C(NCc1ccccc1)[C@H](Cc1ccccc1)NC(=O)[C@H]1O[C@@H]1C(=O)NCCc1ccc(O)cc1 [CAA0225, reference compound]
8.22

----------
Target: human GLP-1R (Homo sapiens, UniProt P43220, C347A)
Construct: gene GLP1R; full-length receptor expressed in HEK293 cells; C347A mutant carries a 1xFLAG tag
Test: HTRF cAMP accumulation, HEK293 cells
Type: cell-based
Conditions: read-out: Compound, EC50, C347A (nM) (S.D., n)
Text: HTRF cAMP accumulation, HEK293 cells on human GLP-1R
MEASURED ENDPOINT: EC50

Below are worked cases with known answers.
molecule="CC(=O)NC1=C(Cl)C(=O)c2ccccc2C1=O [compound 18]" value_reported="> 30000 nM"
molecule="Clc1nc2c(-c3ccccc3)nnn2c2ccccc12 [compound 11]" value_reported="> 30000 nM"
molecule="CS(=NC(=O)Nc1ccc(Cl)cc1)c1sc(Cl)c2c1C(=O)CCC2 (centres unmarked) [compound 16]" value_reported="> 30000 nM"
molecule="Clc1nc2ccc3nsnc3c2nc1Cl [compound 14]" value_reported="> 30000 nM"

Supply measured EC50 of CS(=O)(=O)c1nc(-c2ccccc2)cc(-c2ccccc2)c1C#N [compound 12] in your reply.
> 30000 nM
